measured.target: fluo-Aβ1-40 (Homo sapiens)
Construct: added 100 nM of fluo-Aβ1-40 in 100 μl
Sequence (P05067 672-711): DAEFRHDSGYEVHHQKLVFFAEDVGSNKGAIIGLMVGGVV
assay.protocol: Aβ Aggregation Assay (Synthaloid plates, fluo-Aβ1-40)
Type: biochemical
condition.parameters: 10 μM test compound, 100 nM fluo-Aβ1-40, 2.5 hr at room temperature; higher % = greater effectiveness at preventing aggregation
Structures can show the parent of a compound that is named as a salt.
Hi, to clarify the labels: 1 (yes) covers Aβ aggregation inhibition (%) from 40% upward, 0 (no) covers anything below 40%.

# check: Aβ aggregation inhibition (%) of Cc1ccccc1N1C(=O)OC2(CN3CCC2CC3)C1=O (centres unmarked) [Compound 26, trifluoroacetate salt] is greater than or equal to 40%
1 (yes)

Follow-up item: O=C1OC2(CN3CCC2CC3)C(=O)N1c1cccc([N+](=O)[O-])c1 (centres unmarked) [Compound 6, trifluoroacetate salt]
0 (no)

Follow-up item: COc1cccc(N2C(=O)OC3(CN4CCC3CC4)C2=O)c1 (centres unmarked) [Compound 14, trifluoroacetate salt]
1 (yes)

Follow-up item: O=C1OC2(CN3CCC2CC3)C(=O)N1c1ccccc1F (centres unmarked) [Compound 9, trifluoroacetate salt]
1 (yes)

Follow-up item: Cc1cc(C)cc(N2C(=N)CC3(CN4CCC3CC4)OC2=O)c1 (centres unmarked) [Compound 106, trifluoroacetate salt]
1 (yes)

Follow-up item: N=C1CC2(CN3CCC2CC3)OC(=O)N1c1ccc(Cl)c(Cl)c1 (centres unmarked) [Compound 104, trifluoroacetate salt]
0 (no)

Follow-up item: O=C1OC2(CN3CCC2CC3)C(=O)N1c1ccc(F)cc1F (centres unmarked) [Compound 21, trifluoroacetate salt]
0 (no)
